Source: paper PMC3407795

protocol-summary: Biodistribution in HEK293-hsst2A+ tumor-bearing mice
Type: in vivo
test-settings: mouse, intestines, iv, 10 pmol total peptide, total radioactivity; HEK293-hsst2A+ tumor SCID mice, 4 h pi; mean ± SD; read-out: Intestines uptake
Method: In the flanks of SCID mice, inocula (150 μL) containing a suspension of 1.8 × 10^7 HEK293-hsst2A^+, -hsst3^+ or -hsst5^+ cells in PBS were subcutaneously injected. Tumors of substantial size were grown within 3 weeks, whereupon biodistribution experiments were performed. The in vivo data presented as mean %ID/g ± SD (n ≥ 4) were statistically analyzed with Student’s t test (Prism^TM 2.01, GraphPad Software, San Diego, CA, USA). […]
measurement-type: tissue uptake at 4 h
Give your result as the value with the unit written after it.

Challenge: Data request, read-out tissue uptake at 4 h, for C[C@H](NC(=O)CN1CCN(CC(=O)O)CCN(CC(=O)O)CCN(CC(=O)O)CC1)C(=O)NCC(=O)N[C@H]1CSSC[C@@H](C(=O)O)NC(=O)[C@H](CO)NC(=O)[C@H]([C@@H](C)O)NC(=O)[C@H](Cc2ccccc2)NC(=O)[C@H]([C@@H](C)O)NC(=O)[C@H](CCCCN)NC(=O)[C@@H](Cc2c[nH]c3ccccc23)NC(=O)[C@H](Cc2ccccc2)NC(=O)[C@H](Cc2ccccc2)NC(=O)[C@H](CC(N)=O)NC(=O)[C@H](CCCCN)NC1=O [[^111In]AT2S, metal not drawn]
Response given: 2 %ID/g
